Could you please report measured human MASP1 IC50 for the items listed next?
# assay_system: T1, Recombinant human MASP1 enzyme (fragment corresponding to amino acids 297-699, C-terminal His Tag) (human, UniProt P48740 297-699)
# T1 sequence: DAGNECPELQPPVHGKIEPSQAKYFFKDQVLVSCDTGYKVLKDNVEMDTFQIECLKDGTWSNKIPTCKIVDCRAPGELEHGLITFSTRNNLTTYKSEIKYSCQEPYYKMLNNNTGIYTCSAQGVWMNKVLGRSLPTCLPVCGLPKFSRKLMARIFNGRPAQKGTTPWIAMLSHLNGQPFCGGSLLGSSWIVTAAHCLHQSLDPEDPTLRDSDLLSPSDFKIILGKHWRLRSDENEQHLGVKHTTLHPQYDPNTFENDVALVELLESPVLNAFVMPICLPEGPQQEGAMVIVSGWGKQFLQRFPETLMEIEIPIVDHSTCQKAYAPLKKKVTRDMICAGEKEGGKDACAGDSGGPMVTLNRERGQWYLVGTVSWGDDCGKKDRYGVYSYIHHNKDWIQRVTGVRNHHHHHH
# assay_procedure: cell-based or functional assay
Numbered stars: 1 amine (or outer) side, 2 acyl side, 3 side chain; on linkers, the order of the positions; unused ones are H or OH. Bridge positions count the residues as written; N and C are the ends. Square brackets hold non-standard residues; d marks the D form. Ends that are not written are not given here. Pro(4-spirocPr) = O=C(O)[C@@H]1CC2(CC2)CN1; Nip(3R) = O=C([C@@H]1CCCN([*:1])C1)[*:2]; Oic = O=C(O)[C@@H]1C[C@@H]2CCCC[C@@H]2N1; tBuAla = CC(C)(C)C[C@H](N)C(=O)O; Pen = CC(C)(S)[C@H](N)C(=O)O; Sar = CNCC(=O)O
Number plus unit, in that order.

Q. What value of measured human MASP1 IC50 is listed for [Sar]ICSRS[2‑Amino‑5,5,5‑trifluoro‑4‑methyl‑pentanoic acid]PPI[Pen]IPD-OH (disulfide 3-11) [((N-Me)G)-IC+SRS-(2-Amino-5,5,5-trifluoro-4-methyl-pentanoic acid)-PPI-(Pen)+IPD-OH] ?
A. 14 nM

Q. Same lookup for [dA]ICSRS[tBuAla]P[Pro(4-spirocPr)]I[Pen]IP[dE]-OH (disulfide 3-11; N-terminus assumed; SMILES CC[C@H](C)[C@H](NC(=O)[C@@H](C)N)C(=O)N[C@H]1CSSC(C)(C)[C@@H](C(=O)N[C@H](C(=O)N2CCC[C@H]2C(=O)N[C@H](CCC(=O)O)C(=O)O)[C@@H](C)CC)NC(=O)[C@H]([C@@H](C)CC)NC(=O)[C@@H]2CC3(CC3)CN2C(=O)[C@@H]2CCCN2C(=O)[C@H](CC(C)(C)C)NC(=O)[C@H](CO)NC(=O)[C@H](CCCNC(=N)N)NC(=O)[C@H](CO)NC1=O) [aIC+SRS-((tBu)A)-P-((6S)-5-Azaspiro[2.4]heptane-6-carboxylic acid)-I-(Pen)+IPe-OH] , please.
A. 4.4 nM

Q. Next entry: [Nip(3R)]ICSRSLP[Oic]I[Pen]I-OH (disulfide 3-11; N-terminus assumed; SMILES CC[C@H](C)[C@H](NC(=O)[C@H]1NC(=O)[C@H]([C@@H](C)CC)NC(=O)[C@@H]2C[C@@H]3CCCC[C@@H]3N2C(=O)[C@@H]2CCCN2C(=O)[C@H](CC(C)C)NC(=O)[C@H](CO)NC(=O)[C@H](CCCNC(=N)N)NC(=O)[C@H](CO)NC(=O)[C@@H](NC(=O)[C@@H](NC(=O)[C@@H]2CCCNC2)[C@@H](C)CC)CSSC1(C)C)C(=O)O) [((R)-Piperidine-3-carboxylic acid)-IC+SRSLP-(Oic)-I-(Pen)+I-OH]
A. 4.3 nM
